ASSAY PROTOCOL: 1- to 5-day PK with topical ocular Compound-I formulations (Example 5)
Type: in vivo, Dutch Belted rabbits
PARTICULARS: Dutch Belted, rabbit, central retina, topical, 30 μL per eye (bilateral), b.i.d. groups (3,7), 4 days; 24 hr after day 5 morning dose; read-out: Average Concentration Central Retina
QUANTITY KIND: concentration at 24 h (nM)
Answers are plain numbers, in nM.

Fill in: concentration at 24 h of Cl.NC(=O)c1c(OCc2c(F)cc(Br)cc2F)nsc1NC(=O)NCCCCN1CCCC1 [Compound-I, hydrochloride] is ___
29.2

====

ASSAY PROTOCOL: Ocular pharmacokinetics of formulations, Example 20-4
Assay type: in vivo, Dutch Belted rabbits
PARTICULARS: Dutch Belted, rabbit, central retina, topical, 4 mg/mL (30 μL per eye, bilateral), pH 6, Group 3: 4 mg/mL Salt, eye drops solution (control), pH 6, QD; Day 5, 1 hr post dose; read-out: Central Retina concentration
QUANTITY KIND: concentration at 1 h (nM)
One number for each entry, in nM.

Fill in: concentration at 1 h of Cl.NC(=O)c1c(OCc2c(F)cc(Br)cc2F)nsc1NC(=O)NCCCCN1CCCC1 [Compound-I, hydrochloride] is ___
83.7

====

ASSAY PROTOCOL: Ocular pharmacokinetics of formulations, Example 20-5
Type: in vivo, Dutch Belted rabbits
PARTICULARS: Dutch Belted, rabbit, central choroid, topical, 4 mg/mL, 30 μL per eye, pH 6; read-out: Central Choroid concentration
QUANTITY KIND: concentration at 1 h

Fill in: concentration at 1 h of Cl.NC(=O)c1c(OCc2c(F)cc(Br)cc2F)nsc1NC(=O)NCCCCN1CCCC1 [Compound-I, hydrochloride] is ___
151 nM

====

ASSAY PROTOCOL: 1- to 5-day PK with topical ocular Compound-I formulations (Example 5)
Type: in vivo, Dutch Belted rabbits
PARTICULARS: Dutch Belted, rabbit, peripheral retina, topical, 30 μL (bilateral), Groups 1, 5: one dose day 1; 8 hr post-dose; read-out: Average Concentration Peripheral Retina
QUANTITY KIND: concentration at 8 h (nM)
Answers are plain numbers, in nM.

Fill in: concentration at 8 h of Cl.NC(=O)c1c(OCc2c(F)cc(Br)cc2F)nsc1NC(=O)NCCCCN1CCCC1 [Compound-I, hydrochloride] is ___
33.3

====

ASSAY PROTOCOL: Ocular pharmacokinetics of formulations, Example 20-5
Type: in vivo, Dutch Belted rabbits
PARTICULARS: Dutch Belted, rabbit, central choroid, topical, 30 μL per eye; Group 12: 10 mg/mL suspension, 50 μm particles, TRIS 0.60%, glycerol 2%, HEC 0.2%, HPMC 0.08%, Vitamin K3 1 μM, pH 6, QD for 4 days; 1 hr post dose on Day 5; read-out: Central Choroid concentration
QUANTITY KIND: concentration at 1 h (nM)
One number for each entry, in nM.

Fill in: concentration at 1 h of Cl.NC(=O)c1c(OCc2c(F)cc(Br)cc2F)nsc1NC(=O)NCCCCN1CCCC1 [Compound-I, hydrochloride] is ___
199

====

ASSAY PROTOCOL: Ocular pharmacokinetics of formulations, Example 20-5
Assay type: in vivo, Dutch Belted rabbits
PARTICULARS: Dutch Belted, rabbit, plasma, topical, 1 mg/mL (30 μL per eye, bilateral); Group 7: 1 mg/mL suspension, 50 μm particles, TRIS 0.60%, glycerol 2%, HEC 0.2%, HPMC 0.08%, Vitamin K3 1 μM, pH 6, QD for 4 days; 1 hr post dose on Day 5; read-out: Plasma concentration
QUANTITY KIND: concentration at 1 h (nM)
Answers are plain numbers, in nM.

Fill in: concentration at 1 h of Cl.NC(=O)c1c(OCc2c(F)cc(Br)cc2F)nsc1NC(=O)NCCCCN1CCCC1 [Compound-I, hydrochloride] is ___
2.18

====

ASSAY PROTOCOL: Ocular pharmacokinetics of formulations, Example 20-5
Format: in vivo, Dutch Belted rabbits
PARTICULARS: Dutch Belted, rabbit, central retina, topical, 30 μL per eye; Group 11: 6 mg/mL suspension, 50 μm particles, TRIS 0.60%, glycerol 2%, HEC 0.2%, HPMC 0.08%, Vitamin K3 1 μM, pH 6, QD for 4 days; 1 hr post dose on Day 5; read-out: Central Retina concentration
QUANTITY KIND: concentration at 1 h

Fill in: concentration at 1 h of Cl.NC(=O)c1c(OCc2c(F)cc(Br)cc2F)nsc1NC(=O)NCCCCN1CCCC1 [Compound-I, hydrochloride] is ___
91.5 nM

====

ASSAY PROTOCOL: Ocular pharmacokinetics of formulations, Example 20-4
Type: in vivo, Dutch Belted rabbits
PARTICULARS: Dutch Belted, rabbit, cornea, topical, 4 mg/mL (30 μL per eye, bilateral); Group 16: 4 mg/mL Salt suspension, PSD 30 μm/XL, TRIS 0.60%, glycerol 2%, HEC 0.2%, HPMC 0.08%, VitK3 1 μM, pH 7, QD; Day 5, 1 hr post dose; read-out: Cornea concentration
QUANTITY KIND: concentration at 1 h (µM)
Give bare numbers, in µM.

Fill in: concentration at 1 h of Cl.NC(=O)c1c(OCc2c(F)cc(Br)cc2F)nsc1NC(=O)NCCCCN1CCCC1 [Compound-I, hydrochloride] is ___
14.7

====

ASSAY PROTOCOL: 1- to 5-day PK with topical ocular Compound-I formulations (Example 5)
Assay type: in vivo, Dutch Belted rabbits
PARTICULARS: Dutch Belted, rabbit, peripheral retina, topical, 30 μL bilateral, Groups 1, 5: one dose day 1; 0.5 hr post-dose; read-out: Average Concentration Peripheral Retina
QUANTITY KIND: concentration at 0.5 h
Could you kindly put the unit after your number?

Fill in: concentration at 0.5 h of Cl.NC(=O)c1c(OCc2c(F)cc(Br)cc2F)nsc1NC(=O)NCCCCN1CCCC1 [Compound-I, hydrochloride] is ___
0.0227 µM

====

ASSAY PROTOCOL: Ocular pharmacokinetics of formulations, Example 20-5
Format: in vivo, Dutch Belted rabbits
PARTICULARS: Dutch Belted, rabbit, central retina, topical, 2 mg/mL (30 μL per eye, bilateral); Group 9: 2 mg/mL suspension, 50 μm particles, TRIS 0.60%, glycerol 2%, HEC 0.2%, HPMC 0.08%, Vitamin K3 1 μM, pH 6, QD for 4 days; 1 hr post dose on Day 5; read-out: Central Retina concentration
QUANTITY KIND: concentration at 1 h (nM)
Give bare numbers, in nM.

Fill in: concentration at 1 h of Cl.NC(=O)c1c(OCc2c(F)cc(Br)cc2F)nsc1NC(=O)NCCCCN1CCCC1 [Compound-I, hydrochloride] is ___
63.4

====

ASSAY PROTOCOL: Ocular pharmacokinetics of formulations, Example 20-4
Type: in vivo, Dutch Belted rabbits
PARTICULARS: Dutch Belted, rabbit, cornea, topical, 0.3 mg/mL (30 μL per eye, bilateral), pH 6, Group 1: 0.3 mg/mL Salt, pH 6, BID; Day 5, 1 hr post dose; read-out: Cornea concentration
QUANTITY KIND: concentration at 1 h (µM)
Answers are plain numbers, in µM.

Fill in: concentration at 1 h of Cl.NC(=O)c1c(OCc2c(F)cc(Br)cc2F)nsc1NC(=O)NCCCCN1CCCC1 [Compound-I, hydrochloride] is ___
3.33

====

ASSAY PROTOCOL: Ocular pharmacokinetics of formulations, Example 20-4
Format: in vivo, Dutch Belted rabbits
PARTICULARS: Dutch Belted, rabbit, cornea, topical, 1 mg/mL (30 μL per eye, bilateral), pH 6, Group 2: 1 mg/mL Salt, eye drops solution (control), pH 6, QD; Day 5, 1 hr post dose; read-out: Cornea concentration
QUANTITY KIND: concentration at 1 h
Could you kindly put the unit after your number?

Fill in: concentration at 1 h of Cl.NC(=O)c1c(OCc2c(F)cc(Br)cc2F)nsc1NC(=O)NCCCCN1CCCC1 [Compound-I, hydrochloride] is ___
7.06 µM

====

ASSAY PROTOCOL: 1- to 5-day PK with topical ocular Compound-I formulations (Example 5)
Type: in vivo, Dutch Belted rabbits
PARTICULARS: Dutch Belted, rabbit, peripheral choroid, topical, 30 μL bilateral, Groups 1, 5: one dose day 1; 1 hr post-dose; read-out: Average Concentration Peripheral Choroid
QUANTITY KIND: concentration at 1 h (nM)
Answers are plain numbers, in nM.

Fill in: concentration at 1 h of Cl.NC(=O)c1c(OCc2c(F)cc(Br)cc2F)nsc1NC(=O)NCCCCN1CCCC1 [Compound-I, hydrochloride] is ___
47.3

====

ASSAY PROTOCOL: Ocular pharmacokinetics of formulations, Example 20-4
Type: in vivo, Dutch Belted rabbits
PARTICULARS: Dutch Belted, rabbit, central choroid, topical; Group 5: 6 mg/mL FB suspension, PSD 30 μm/XL, HPMC 0.08%, glycerol 2.5%, HEC 0.2%, VitK3 1 μM, pH ≈7.5, QD; Day 5, 1 hr post dose; read-out: Central Choroid concentration
QUANTITY KIND: concentration at 1 h (nM)
Numbers only, in nM.

Fill in: concentration at 1 h of NC(=O)c1c(OCc2c(F)cc(Br)cc2F)nsc1NC(=O)NCCCCN1CCCC1 is ___
203
